pIC50: −log10 of the molar value.
So I've got pIC50 readings for PDE4 (Homo sapiens, UniProt Q07343), take a look.

compound | system-under-test | pIC50
CCCC(=O)OCOC(=O)c1c(-c2ccccc2)nn(CC)c(=O)c1Nc1cccnc1 [Example 17] | PDE4 (Homo sapiens, UniProt Q07343) | 8.44
CCn1nc(-c2ccccc2)c(C(=O)OCOC(=O)C(C)(C)C)c(Nc2cccnc2)c1=O [Example 23] | PDE4 (Homo sapiens, UniProt Q07343) | 9.03
CCn1nc(-c2ccccc2)c(C(=O)OC(C)OC(=O)OC2CCCCC2)c(Nc2cnccc2C)c1=O (stereo not shown) [Example 76] | PDE4 (Homo sapiens, UniProt Q07343) | 8.34
CCn1nc(-c2ccccc2)c(C(=O)OCOC(C)=O)c(Nc2cccnc2)c1=O [Example 19] | PDE4 (Homo sapiens, UniProt Q07343) | 7.96
CCOC(=O)OC(C)OC(=O)c1c(-c2ccccc2)nn(CC)c(=O)c1Nc1cnccc1C (stereo not shown) [Example 27] | PDE4 (Homo sapiens, UniProt Q07343) | 8.04
CCn1nc(-c2ccccc2)c(C(=O)OCC(=O)OCc2ccccc2)c(Nc2cccnc2)c1=O [Example 16] | PDE4 (Homo sapiens, UniProt Q07343) | 9.66
CCn1nc(-c2ccccc2)c(C(=O)OCCl)c(Nc2cncc3ccccc23)c1=O [Example 164] | PDE4 (Homo sapiens, UniProt Q07343) | 10.00
